Target: Human AMPK α2β2γ1 (Homo sapiens, UniProt O43741+P54646)
Construct: The full length cDNAs of human AMPK β2 (NM_005399.3) and human AMPK α2 (NM_006252.3); The full length cDNAs of human AMPK β2 (NM_005399.3); the full length cDNA of human AMPK γ1 (NM_002733.3) had been inserted into pET28b(+); 6×His (N); made in house; host or cells: Escherichia coli BL21 CodonPlus (DE3)-RIL
Sequence (P54646 whole entry): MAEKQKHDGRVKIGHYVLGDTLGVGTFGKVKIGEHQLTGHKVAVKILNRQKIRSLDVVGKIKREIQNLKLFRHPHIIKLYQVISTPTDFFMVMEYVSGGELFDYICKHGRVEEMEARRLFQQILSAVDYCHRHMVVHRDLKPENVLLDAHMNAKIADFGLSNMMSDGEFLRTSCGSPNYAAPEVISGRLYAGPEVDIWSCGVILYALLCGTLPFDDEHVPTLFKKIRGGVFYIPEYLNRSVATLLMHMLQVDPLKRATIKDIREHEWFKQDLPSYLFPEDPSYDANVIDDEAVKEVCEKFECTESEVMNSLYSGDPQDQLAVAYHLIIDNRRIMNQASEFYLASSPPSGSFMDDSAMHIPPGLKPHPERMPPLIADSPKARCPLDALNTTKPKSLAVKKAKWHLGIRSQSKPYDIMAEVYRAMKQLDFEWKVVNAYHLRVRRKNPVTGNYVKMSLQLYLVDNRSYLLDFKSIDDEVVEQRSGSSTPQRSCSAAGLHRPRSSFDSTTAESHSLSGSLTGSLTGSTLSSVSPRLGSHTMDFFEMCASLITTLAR
Sequence (O43741 whole entry): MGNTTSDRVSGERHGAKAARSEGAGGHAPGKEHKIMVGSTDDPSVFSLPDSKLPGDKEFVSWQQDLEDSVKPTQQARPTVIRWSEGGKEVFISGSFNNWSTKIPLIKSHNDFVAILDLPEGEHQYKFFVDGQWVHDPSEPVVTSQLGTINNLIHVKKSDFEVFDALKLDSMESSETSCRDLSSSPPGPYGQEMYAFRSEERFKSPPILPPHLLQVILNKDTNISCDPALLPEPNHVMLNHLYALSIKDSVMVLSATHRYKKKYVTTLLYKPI
Sequence (P54619 whole entry partner): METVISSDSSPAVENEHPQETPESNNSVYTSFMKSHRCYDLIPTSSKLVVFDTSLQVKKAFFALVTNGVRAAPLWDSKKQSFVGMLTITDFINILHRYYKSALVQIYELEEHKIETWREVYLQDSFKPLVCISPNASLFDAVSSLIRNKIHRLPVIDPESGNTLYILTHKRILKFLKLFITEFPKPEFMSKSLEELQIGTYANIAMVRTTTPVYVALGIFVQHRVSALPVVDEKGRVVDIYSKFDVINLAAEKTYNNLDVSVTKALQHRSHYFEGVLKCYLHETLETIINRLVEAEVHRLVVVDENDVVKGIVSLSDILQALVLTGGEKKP
Assay: Test Example 2: activation of phosphorylated human AMPK α2β2γ1 (mobility-shift kinase assay, FL-Peptide 7)
Type: biochemical
Settings: compound concentration showing 150% relative to the control (100%); human AMPK α2β2γ1 phosphorylated with CaMKK2
Description: The full length cDNAs of human AMPK β2 (NM_005399.3) and human AMPK α2 (NM_006252.3) were inserted into the MCS1 and MCS2 of the pETDuet-1 vector to prepare a human AMPK β2 and human AMPK α2 (6×His tag at the 5′ terminus) expressing plasmid. […] To detect phosphorylated fluorescent substrates, the reaction mixture was applied to a measuring device, LabChip EZ Reader II manufactured by Caliper Life Science, Inc., for detecting fluorescence by using differences in mobility due to differences in charge. […]
parameter: EC150 (nM)
Output spec: scalar in nM, unitless text.

Specify EC150 for `CC(=O)Nc1ccc(-c2ccc(-c3nc4cc(O[C@@H]5CO[C@H]6[C@@H]5OC[C@H]6O)[nH]c4cc3F)cc2)cc1` , system Human AMPK α2β2γ1 (Homo sapiens, UniProt O43741+P54646).
5.9

Fill in: EC150 on Human AMPK α2β2γ1 (Homo sapiens, UniProt O43741+P54646), entry `O=C(C1CCN(c2ccc(-c3nc4cc(O[C@@H]5CO[C@H]6[C@@H]5OC[C@H]6O)[nH]c4cc3F)cc2)CC1)N1CCCC1`
35

// output EC150; input `COCCCN1CCN(c2ccc(-c3nc4cc(O[C@@H]5CO[C@H]6[C@@H]5OC[C@H]6O)[nH]c4cc3F)cc2)CC1` ; system Human AMPK α2β2γ1 (Homo sapiens, UniProt O43741+P54646)
56

---

Biological target: Human AMPK α2β2γ1 (Homo sapiens, UniProt O43741+P54646)
Construct: The full length cDNAs of human AMPK β2 (NM_005399.3) and human AMPK α2 (NM_006252.3); The full length cDNAs of human AMPK β2 (NM_005399.3); the full length cDNA of human AMPK γ1 (NM_002733.3) had been inserted into pET28b(+); 6×His (N); made in house; host or cells: Escherichia coli BL21 CodonPlus (DE3)-RIL
Assay: Test Example 2: activation of phosphorylated human AMPK α2β2γ1 (mobility-shift kinase assay, FL-Peptide 7)
Type: biochemical
Conditions: maximum rate of increase in activity within the measurement range, control = 100%; read-out: Emax
parameter: Emax (%)
API: value field is a number in %; no unit string.

compound | reported
CS(=O)(=O)c1ccc(-c2ccc(-c3nc4cc(O[C@@H]5CO[C@H](CO)C5)[nH]c4cc3F)cc2)cc1 [Compound I-2-79] | 591
COCC[S+]([O-])c1ccc(-c2ccc(-c3nc4cc(O[C@@H]5CO[C@H]6[C@@H]5OC[C@H]6O)[nH]c4cc3F)cc2)cc1 (stereo partly drawn) [Compound I-2-93] | 652

Now look at this entry.
State its Emax for this compound: CS(C)(=O)=Nc1ccc(-c2ccc(-c3nc4cc(O[C@@H]5CO[C@H](CO)[C@H]5F)[nH]c4cc3F)cc2)cc1 [Compound I-2-42]
647
